test: folding stability dG unfold (combined trypsin and chymotrypsin); higher = more stable
For each record, write down the corresponding folding stability dG unfold.
Answers are plain numbers, in kcal/mol.

In: Read off the recorded folding stability dG unfold for SAGGSAGGSAGGKWIMVDSPEDIKEFAEDQGYKIKVDNVHPFPGDKNHYMVWIEIEPPGSAGGSAGGSAGGS [r10_126_TrROS]
Out: 1.18

Batch: folding stability dG unfold for all items listed.
1. SAGGTTTESVSEDSTDNGEYVTTTTTTDPVGPSTVVTTTTTTTPADGTTTTTTTTYTVPPGAPASAVVSAGG [r13_3_JUSTAS]
2. SAGGKTVEVEFEAPESLSPEEIAAAILAAAPPGYFVKVEEVEVRDRPDGEKVILYKATFYDPDTGDFDSAGG [r13_12_TrMRF]
3. PISAEEAVDYAKHLAERLLKENPPGQEEVEIEFQSPNGWTVKIEIDPNNRKIDVEVYPRNGEPIAKAKIKVS [r1_370_TrROS]
4. SAGWIIKIYFPDKKKEIMISRFPDGQWWMVQVHDKKGEPRQTIPAGMPVDELLKDFPDAKVEVYPFEPPSAG [r5_314_TrROS]

Out:
-0.00338
2.73
0.205
2.21

In: Read off the recorded folding stability dG unfold for SAGGSAGGSAGGGPAPGKGLVVKLEPEEFEFENFRLIVVKAVKDDKLIAEIAYLISPDESAGGSAGGSAGGS [r10_628_TrMRF]
Out: 0.904

* * *

test: folding stability dG unfold from trypsin proteolysis; higher = more stable
metric_name: folding stability dG unfold (kcal/mol)
One number for each entry, in kcal/mol.

In: Read off the recorded folding stability dG unfold for SAMKIAKVTYEPVKVDGKELLLFKVEIVHSETGEKEEKTFLTEDPEDFIENLLKHPDIDIVEILEFKEGSAG [r14_464_TrMRF]
Out: 2.32

In: Read off the recorded folding stability dG unfold for SAGGIEEAIKEGKTVIIRVKVIDKETGKEYERTIEVPANEEISLEELLKALLPPGYEVEIEVVELEPSAGGS [r8_127_TrROS_Hall]
Out: 3.78

In: Read off the recorded folding stability dG unfold for SAGGGSMTTVRLTREINLPSSVSDEEIIEEIKEELPENYEILEVKIEKDPKTGKYYIEAEVKIPKLGSAGGS [r16_396_JUSTAS]
Out: 0.904

In: Read off the recorded folding stability dG unfold for SAGGSMPPDTEIAVIRVEVRPPDGSTLPLLFTVPLEKVEEVAKEIAERLREKGYEVKVELAAVFPVSAGGSA [r2_274_TrMRF]
Out: 2.06

In: Read off the recorded folding stability dG unfold for SAGGGSSMVTTVIPVLRTETLFDENGNVIGPRTTVETIELEAEVPLPPRPPLVFSFVPPELRDPAVLLSAGG [r13_508_JUSTAS]
Out: -0.299

Batch: folding stability dG unfold for all items listed.
1. SAGGSGMVITIPVELPTPRTLTFTFYPETGTATVEVSPGVPAAEVRATVEEVFAAHGLKLNPITLLSAGGSA [r2_497_JUSTAS]
2. SAGGSAGGSMTLIGTTTLPSPDGSLVTVDTYKVPGSDELVAKVTTLNGTTWTTETRPLSEFLKSAGGSAGGS [r12_1063_JUSTAS]

Out:
0.995
0.188

* * *

assay: folding stability dG unfold (combined trypsin and chymotrypsin); higher = more stable
For each record, write down the corresponding folding stability dG unfold.
Kindly report the value followed by its unit.

Past entries and their recorded results:
In: Read off the recorded folding stability dG unfold for SAGGSAGGSKTVVITLPENEELGLEKLEELIEKVGPDAKIIISRWDPETGKVDYLVIETGEGKSAGGSAGGS [r12_913_TrMRF]
Out: 1.69 kcal/mol

In: Read off the recorded folding stability dG unfold for SAGGGSTSTSTSTSTDPATGATTTTTTTTVPTPDGSGTVTTTTTTVPGAAPDTDTAPVTTTTTTTPTPSAGG [r13_715_JUSTAS]
Out: 2.32 kcal/mol

In: Read off the recorded folding stability dG unfold for SAGKVLEELGYELVEEKEEEIGDVKIITATFPVGESPVVVTAEVTEKKEDDKPIVKVKVTVTPLPPEAPSAG [r5_516_JUSTAS]
Out: 0.58 kcal/mol

In: Read off the recorded folding stability dG unfold for SAGGSAGGSALPLPPDQRLYVFRDPEGDLYLVRFEDGSEVRTSLKAEDLEKLGVPVVDIGDLSAGGSAGGSA [r18_125_TrMRF]
Out: 1.66 kcal/mol

In: Read off the recorded folding stability dG unfold for SAGGSAGGSAGSIVTIPIAGLSPEEAEALIKEAIAAGEDKPIILVDEDGTPTVVPASELKSAGGSAGGSAGG [r11_541_JUSTAS]
Out: -0.242 kcal/mol

Batch: folding stability dG unfold for all items listed.
1. SAGGSAGGSAGKPVLKLTVTLPNGLTVTVTINPDGEITVEIRPLPPPPPPVRTYSDEELKSAGGSAGGSAGG [r11_1015_TrROS_Hall]
2. SAGGMKIKLKDGSEITIGSEPGRLVIVLRPPGPRSRKVIPFPVPSKEHGFVAAVNELLSLEDIEEIEPSAGG [r13_579_TrMRF]

Out:
1. 2.1 kcal/mol
2. 1.15 kcal/mol

* * *

assay: folding stability dG unfold from chymotrypsin proteolysis; higher = more stable
Tag: rule met if measured folding stability dG unfold is not below 1 kcal/mol, rule not met if it is.

In: // inclusive: folding stability dG unfold at least 1 kcal/mol? input: SAGGSAGGSAGGMITVNPRGGTATFTTSSGETTTVPASLADQVRVDTGLPDAPVFTAPPASAGGSAGGSAGG [r7_235_JUSTAS]
Out: rule not met

In: // inclusive: folding stability dG unfold at least 1 kcal/mol? input: SAMVSVTELPDGGVLATFPLPDGHPATAVFDPADLKPSVAYFPNGLRAVLRVTPDGRVELLAVEDVPPASAG [r14_877_TrMRF]
Out: rule not met

In: // inclusive: folding stability dG unfold at least 1 kcal/mol? input: SAGGSAGGSAGMKVEIEVYELPGGERPVKITVTYENKPKEYEKEAETEEEAEEFAKELLESAGGSAGGSAGG [r11_560_JUSTAS]
Out: rule not met

In: // inclusive: folding stability dG unfold at least 1 kcal/mol? input: SAGGSAPKPDWIVRIEITVKFPGKTKKIDIVIDSPEALNQIINELKDEGFKDVEPKIEWVPLEEMKSAGGSA [r15_1015_TrROS]
Out: rule met

In: // inclusive: folding stability dG unfold at least 1 kcal/mol? input: SAGGSAGGSAGRRRVFFTPDGTLIVVDELPDFVRVTRYRITPGFPRIEPVDTRVLPPGALSAGGSAGGSAGG [r11_844_TrMRF]
Out: rule met

In: // inclusive: folding stability dG unfold at least 1 kcal/mol? input: SAGGSAGGSAGGPPIIEFPIKGDNPEQAKRFAKEVVDLLPDQNPENVDITTTDGWVRITSAGGSAGGSAGGS [r10_182_TrROS]
Out: rule not met

Others:
In: // inclusive: folding stability dG unfold at least 1 kcal/mol? input: SAGGKMKLEVEILENEGTILVRFHFGDKVLEIPLPFPNLTPEDVKEAAEEIAKKLKEEYNIEEVEIESAGGS [r16_249_TrMRF]
Out: rule met

* * *

assay: folding stability dG unfold from trypsin proteolysis; higher = more stable
For each record, write down the corresponding folding stability dG unfold.
Numbers only, in kcal/mol.

Past entries and their recorded results:
In: Read off the recorded folding stability dG unfold for SAGGSAGGSAGKIEAFPGKNTVLLKISIPRRDPNSDSIYTLHAVIPATPEQAKKFLELGISAGGSAGGSAGG [r11_389_TrMRF]
Out: 0.89

In: Read off the recorded folding stability dG unfold for SAANPKDIVKAEIEIPGKYGAKFTVYTLPDGTVIVPAEVTLIEGDKPVKKPLVLVVDASTGKILAIADASAG [r14_630_TrMRF]
Out: 1.09

In: Read off the recorded folding stability dG unfold for SAGGSAGGSAPMVLLLEFDSPEEATEAAKKIAEEFEKLGAKVEVEIFKPPEDKYLVLIRIDSAGGSAGGSAG [r3_211_TrMRF]
Out: 3.66

In: Read off the recorded folding stability dG unfold for SAGGSAGGMVTIASITFEEDPEGGITVTVYLPSNGKTITVPVPADTPEAEARARAEAAARAYAASAGGSAGG [r6_628_JUSTAS]
Out: 0.894

In: Read off the recorded folding stability dG unfold for SAGGSAMKVVFYGDEASQKEIAEKAKKEGIEYEAYPGSREEILAYVKENYPDVKMIVYPEGKEYLISAGGSA [r15_712_JUSTAS]
Out: 0.0902

In: Read off the recorded folding stability dG unfold for SAGEVKIEISVEKVGGKYIVRIKVTVDGKEYEYEFPAGKSVEELAKELEKKLNLKVKKIEVEVRKLPPKSAG [r5_181_TrROS_Hall]
Out: 2.88

Next, consider the following sequence.
In: Read off the recorded folding stability dG unfold for SAGGSAGGSAGGIKLENPNGFEVYKSPDSMVEIEFVNPNGKPMRYIIQVDEPGEIKPYPVSAGGSAGGSAGG [r7_423_TrROS]
Out: 0.0628
